- Assay target: 5-lipoxygenase (Rattus norvegicus, UniProt P12527)
- Construct: 20,000×g supernatant from homogenized RBL-1 cells; endogenous in cells
- Sequence (P12527 whole entry): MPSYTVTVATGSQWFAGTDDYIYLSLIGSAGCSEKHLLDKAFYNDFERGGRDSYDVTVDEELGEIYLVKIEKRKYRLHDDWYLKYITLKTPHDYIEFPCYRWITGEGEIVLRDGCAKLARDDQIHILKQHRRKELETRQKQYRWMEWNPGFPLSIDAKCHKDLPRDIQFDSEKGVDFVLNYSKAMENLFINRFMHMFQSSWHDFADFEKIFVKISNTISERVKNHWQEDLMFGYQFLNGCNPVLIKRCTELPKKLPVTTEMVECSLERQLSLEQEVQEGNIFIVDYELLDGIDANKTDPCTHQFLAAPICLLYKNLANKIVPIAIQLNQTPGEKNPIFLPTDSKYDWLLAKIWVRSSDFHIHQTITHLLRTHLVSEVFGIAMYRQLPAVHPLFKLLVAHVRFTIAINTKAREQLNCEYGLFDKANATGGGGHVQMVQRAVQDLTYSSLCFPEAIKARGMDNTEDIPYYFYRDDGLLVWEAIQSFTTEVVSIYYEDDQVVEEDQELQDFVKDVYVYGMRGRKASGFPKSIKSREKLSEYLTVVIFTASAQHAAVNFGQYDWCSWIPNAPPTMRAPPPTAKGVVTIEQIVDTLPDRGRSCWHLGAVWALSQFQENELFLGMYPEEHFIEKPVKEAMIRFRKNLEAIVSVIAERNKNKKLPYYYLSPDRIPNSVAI
- Assay: In Vitro 5-lipoxygenase Inhibitory Activity (20,000×g supernatant from homogenized RBL-1 cells)
- Condition summary: read-out: IC50 (concentration of compound producing 50% enzyme inhibition)
hey, just use 1 if measured IC50 is less than 0.5 µM, otherwise -1

# example entries with known answers
### Prompt Is IC50 strictly under 0.5 µM for the entry CC(NC(=O)NO)c1cc2ccccc2o1 (stereo not shown) ?
### Response -1

### Prompt Quick check: does CC(NC(=O)N(C)O)c1cc2ccccc2o1 (stereo not shown) have IC50 under 0.5 µM?
### Response 1

### Prompt # check: IC50 < 0.5 µM for CC(NC(=O)N(C)O)c1ccc(OCc2ccccc2)cc1 (stereo not shown)
### Response 1

### Prompt Report whether reported IC50 is lower than 0.5 µM (strictly) for "O=C(NCc1ccsc1)N(O)CCO"
### Response -1

### Prompt Quick check: does Cc1cc(C(C)NC(=O)NO)c(C)s1 (stereo not shown) have IC50 under 0.5 µM?
### Response -1

Could you now look at the following molecule, please?
### Prompt Hello, I'm reviewing records and need to know if IC50 of CC(NC(=O)NO)c1ccc(OCc2ccccc2)cc1 (stereo not shown) is below 0.5 µM. Could you check?
### Response -1
